Target Or Test System: Monoamine oxidase (Rattus norvegicus, UniProt P19643+P21396)
Procedure Details: In vitro inhibition of Monoamine oxidase at rat hyphalamic mitochondrial PEA by displacing 2.5 uM of [14C]PEA.
Type: protein assay
Result Type: log10 IC50 (log10 of the value in µM)
Heads up: the numbers are on a log10 scale; they represent IC50 in µM.

Example molecules with recorded log10 IC50:
| Molecule | Value Observed |
| --- | --- |
| CC=C=CCN(C)Cc1ccccc1.O=C(O)C(=O)O (stereo in doubt; (R)(-)2) | 0.36 |
| C=C=C(CN)Cc1ccc(Cl)cc1 | -1.40 |
| C=C=CCN1CCc2ccccc2C1 | 0.63 |
| C=C=CCN(C)Cc1ccccc1 | -0.77 |
| C=C=CCN(C)C(C)Cc1ccccc1 (centres undefined) | 0.67 |
| CC=C=CCN(C)Cc1ccccc1.O=C(O)C(=O)O (stereo in doubt; (S)(+)2) | 1.70 |
| C=C=CCN(C)CCCOc1ccc(Cl)cc1Cl | 0.66 |
| C=C=CCN(C)C1CCc2ccccc21 (centres undefined) | -0.44 |
| C=C=C(CN)c1ccccc1 | -0.62 |
| CC=C=CCN(C)Cc1ccccc1 | 1.18 |

Challenge: Tell us which log10 IC50 value is on record for "C=C=CCNCc1ccccc1"
Response given: -0.82

Challenge: Tell us which log10 IC50 value is on record for "C=C=C(CN)Cc1ccc(C)cc1"
Response given: -0.44

Challenge: Tell us which log10 IC50 value is on record for "C=C=C(CN)Cc1ccc(OC)cc1"
Response given: -0.24

Origin of values: ChEMBL document CHEMBL1122244
